- target.or.system: Human EphA2 (ephrin receptor A2) on cells (human, UniProt P29317 25-976)
- Sequence (P29317 25-976): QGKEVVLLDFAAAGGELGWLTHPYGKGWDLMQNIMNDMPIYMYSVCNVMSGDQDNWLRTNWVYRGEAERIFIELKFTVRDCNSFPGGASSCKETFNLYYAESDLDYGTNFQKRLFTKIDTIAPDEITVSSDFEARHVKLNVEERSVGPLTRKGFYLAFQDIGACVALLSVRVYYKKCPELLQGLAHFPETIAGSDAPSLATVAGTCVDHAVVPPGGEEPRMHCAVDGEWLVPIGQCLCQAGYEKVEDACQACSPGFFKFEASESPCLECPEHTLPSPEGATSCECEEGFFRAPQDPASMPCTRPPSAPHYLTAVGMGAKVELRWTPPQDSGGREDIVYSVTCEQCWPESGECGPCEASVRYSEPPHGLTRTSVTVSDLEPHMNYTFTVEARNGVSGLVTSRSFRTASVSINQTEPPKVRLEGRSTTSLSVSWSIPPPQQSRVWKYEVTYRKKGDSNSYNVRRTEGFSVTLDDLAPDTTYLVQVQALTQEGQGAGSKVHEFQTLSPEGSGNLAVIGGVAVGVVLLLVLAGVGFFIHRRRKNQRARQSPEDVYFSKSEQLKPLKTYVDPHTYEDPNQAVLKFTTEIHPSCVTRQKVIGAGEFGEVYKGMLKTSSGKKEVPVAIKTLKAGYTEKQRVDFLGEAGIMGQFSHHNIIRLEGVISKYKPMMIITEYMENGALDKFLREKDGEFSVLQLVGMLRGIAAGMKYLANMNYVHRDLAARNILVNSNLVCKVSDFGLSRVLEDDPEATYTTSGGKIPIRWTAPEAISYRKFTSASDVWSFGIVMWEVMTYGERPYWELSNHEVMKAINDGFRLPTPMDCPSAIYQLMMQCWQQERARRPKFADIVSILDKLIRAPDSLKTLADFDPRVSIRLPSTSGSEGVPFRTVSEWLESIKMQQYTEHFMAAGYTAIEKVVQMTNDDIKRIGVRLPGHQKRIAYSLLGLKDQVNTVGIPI
- assay.summary: cell-based or functional assay
# ADCC Fold-improved (against AB-008873) per entry
Give the quantity in fold, number only.

AB-010362 (antibody, mouse IgG2a, V domains shown) VH: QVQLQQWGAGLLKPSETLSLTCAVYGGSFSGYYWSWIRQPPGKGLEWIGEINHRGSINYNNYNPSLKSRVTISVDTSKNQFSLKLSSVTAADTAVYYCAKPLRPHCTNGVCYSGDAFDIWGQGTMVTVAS VL: SYVLTQPPSVSVAPGQTARITCGGNNIGSKNVHWYQQKPGQAPVLVVYDDSDRPSGIPERFSGSNSGNTATLTISRVEAGDEADYYCQVWDSSSDHLVFGGGTKLTVL
2.72
AB-010365 (antibody, V domains shown) VH: QVQLQQWGAGLLKPSETLSLTCAVYGGSFSGYYWSWIRQPPGKGLEWIGEINHAGSINYNNYNPSLKSRVTISVDTSKNQFSLKLSSVTAADTAVYYCAKPLRPHCTNGVCYSGDAFDIWGQGTMVTVAS VL: SYVLTQPPSVSVAPGQTARITCGGNNIGSKNVHWYQQKPGQAPVLVVYDDSDRPSGIPERFSGSNSGNTATLTISRVEAGDEADYYCQVWDSSSDHVVFGGGTKLTVL
1.01
AB-010363 (antibody, V domains shown) VH: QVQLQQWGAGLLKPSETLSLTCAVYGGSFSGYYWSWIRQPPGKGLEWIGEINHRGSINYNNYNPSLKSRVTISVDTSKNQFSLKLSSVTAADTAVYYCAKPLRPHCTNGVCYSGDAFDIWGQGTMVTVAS VL: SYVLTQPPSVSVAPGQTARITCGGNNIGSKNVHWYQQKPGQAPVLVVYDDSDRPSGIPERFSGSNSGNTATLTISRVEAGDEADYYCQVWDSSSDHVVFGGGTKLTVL
3.66

Item AB-010366 (antibody, mouse IgG2a, V domains shown) VH: QVQLQQWGAGLLKPSETLSLTCAVYGGSFSGYYWSWIRQPPGKGLEWIGEINHQGSINYNNYNPSLKSRVTISVDTSKNQFSLKLSSVTAADTAVYYCAKPLRPHCTNGVCYSGDAFDIWGQGTMVTVAS VL: SYVLTQPPSVSVAPGQTARITCGGNNIGSKNVHWYQQKPGQAPVLVVYDDSDRPSGIPEQFSGSNSGNTATLTISRVEAGDEADYYCQVWDSSSDHVVFGGGTKLTVL has what recorded ADCC Fold-improved (against AB-008873)? 1.2

And for AB-010359 (antibody, V domains shown) VH: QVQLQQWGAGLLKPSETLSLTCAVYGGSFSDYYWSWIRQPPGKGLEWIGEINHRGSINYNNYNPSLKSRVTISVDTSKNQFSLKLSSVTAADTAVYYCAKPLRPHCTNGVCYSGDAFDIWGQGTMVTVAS VL: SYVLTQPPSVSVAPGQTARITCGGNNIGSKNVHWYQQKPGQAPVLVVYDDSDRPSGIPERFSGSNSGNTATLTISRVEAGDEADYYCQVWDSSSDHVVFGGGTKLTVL ? 1.38
